Origin of values: patent US9493444B2

# Test system: Wnt pathway (TCF-dependent transcription in HEK293 luciferase reporter cell line with ER-DSH construct)
# METHOD DESCRIPTION: Cellular assay for Wnt pathway activity (luciferase reporter)
# Type: cell-based
# CONDITION DETAILS: Homo sapiens; Wnt pathway inhibition, HEK293 luciferase reporter cells (ER-DSH, TCF promoter), 24 hours incubation, estrogen-induced
# Protocol: 1. Cellular Assay for Wnt Pathway Activity Compounds were tested for their Wnt pathway inhibitory activities using a luciferase reporter cell based assay. […] Compounds, in concentrations from 30 μM down to 1 nM, were incubated for 24 hours on the cells, which were induced for TCF-dependent transcription by the addition of estrogen (10). Luciferase activities were determined using the ONE GLO Luciferase Assay System (Promega) and the ENVISION microplate reader (Perkin Elmer). […]
Kindly state IC50 for each of the entries shown.

Exercise: Give the reported value of IC50 for this record: CC(=O)N(C)CCNc1cncc(Oc2ccc(-c3cccnc3)c(F)c2F)n1
Key: 1 to 10 µM

Exercise: Give the reported value of IC50 for this record: CC(=O)N(C)CCN(C)c1cncc(Oc2ccc(-c3cncnc3)cc2)n1
Key: < 0.2 µM

Exercise: Give the reported value of IC50 for this record: O=C1OCCN1CCNc1cncc(Oc2ccc(F)cc2)n1
Key: 1 to 10 µM

Exercise: Give the reported value of IC50 for this record: COc1ccc(Oc2cncc(N(C)CCNC(=O)OC(C)(C)C)n2)cc1
Key: 1 to 10 µM

Exercise: Give the reported value of IC50 for this record: CC(=O)N(C)CCCc1cncc(Oc2ccc(-c3cnc(N)cn3)cc2F)n1
Key: 0.2 to 1 µM

Exercise: Give the reported value of IC50 for this record: CC(=O)N(C)CCN(C)c1cncc(O[C@H]2C[C@H]3CC[C@@H]2C3)n1
Key: 1 to 10 µM

Exercise: Give the reported value of IC50 for this record: CC(=O)N(C)CCN(C)c1cncc(Oc2ccc(-c3nccs3)cc2)n1
Key: < 0.2 µM

Exercise: Give the reported value of IC50 for this record: CC(=O)N(C)CCN(C)c1cncc(Oc2ccc3[nH]c(=O)oc3c2)n1
Key: 1 to 10 µM

Exercise: Give the reported value of IC50 for this record: CC(=O)N(C)CCN(C)c1cncc(Oc2ccc(-c3cccnc3)c(F)c2F)n1
Key: < 0.2 µM

Exercise: Give the reported value of IC50 for this record: CC(=O)N(C)CCNc1cncc(Oc2ccc(-c3cncc(S(C)(=O)=O)c3)cc2)n1
Key: 1 to 10 µM

Exercise: Give the reported value of IC50 for this record: COc1ccc(Oc2cncc(N(C)CCN(C)C(=O)Cc3ccc(F)cc3)n2)cc1
Key: 1 to 10 µM

Exercise: Give the reported value of IC50 for this record: CC(=O)N(C)CCN(C)c1cncc(Sc2ccc(Br)cc2)n1
Key: 1 to 10 µM

Exercise: Give the reported value of IC50 for this record: CC(=O)N(C)CCN(C)c1cncc(Oc2ccc(-c3nc4cc(C#N)ccc4[nH]3)cc2)n1
Key: 0.2 to 1 µM

Exercise: Give the reported value of IC50 for this record: C#CCOC(=O)Nc1ccc(-c2ccc(Oc3cncc(N(C)CCN(C)C(C)=O)n3)cc2)nc1
Key: < 0.2 µM

Exercise: Give the reported value of IC50 for this record: CC(=O)N(C)CCOc1cncc(Oc2ccc(F)cc2)n1
Key: 1 to 10 µM
